experimental-target: Active Human ERK2 (hERK2) (Homo sapiens (Human))
Sequence (P28482 whole entry): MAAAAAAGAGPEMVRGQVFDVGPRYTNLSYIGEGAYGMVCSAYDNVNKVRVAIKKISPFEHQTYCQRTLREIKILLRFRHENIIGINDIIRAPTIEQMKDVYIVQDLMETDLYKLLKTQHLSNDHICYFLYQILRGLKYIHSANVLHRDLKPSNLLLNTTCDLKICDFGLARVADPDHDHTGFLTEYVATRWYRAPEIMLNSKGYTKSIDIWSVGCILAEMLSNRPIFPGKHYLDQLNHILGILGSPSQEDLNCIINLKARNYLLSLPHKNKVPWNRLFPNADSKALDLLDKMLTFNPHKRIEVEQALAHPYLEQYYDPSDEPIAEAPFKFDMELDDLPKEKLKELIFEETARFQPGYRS
measurement-notes: Active Human ERK2 (hERK2) Activity Assay (IMAP-FP)
Assay type: biochemical
settings: phosphorylated active hERK2, 30 μM ATP; average; read-out: ERK 2 Human average IC50
measurement-kind: IC50 (nM)

Worked examples follow.
> print(dat)
                              smiles.record  quantitative.readout
1  CCNC(=O)[C@H]1C[C@@H]1c1n[nH]c2cc(NC(=O)N[C@H](COC)c3ccccc3)ncc12                 0.715
2  Cc1cc(-c2n[nH]c3cc(NC(=O)NCc4cn5c(C)cccc5n4)ncc23)ccn1                  22.6

P. C[C@@H](NC(=O)Nc1cc2[nH]nc(-c3ccc(F)cc3)c2cn1)C1CCCCC1
Q. Cc1cc(-c2n[nH]c3cc(NC(=O)N[C@H](C)c4ccccc4)ncc23)cc(C)n1
Lab note: record which item had the higher IC50, P or Q . Write the label of whichever entry you select.
P

a. Cc1cc(-c2n[nH]c3cc(NC(=O)N[C@H](C)Cc4ccccc4)ncc23)ccn1
b. Cc1ccc(C2(NC(=O)Nc3cc4[nH]nc(-c5ccnc(C)c5)c4cn3)CC2)cc1
Lab note: record which item had the higher IC50, a or b . Write the label of whichever entry you select.
b
